Target: BRD2 BD2 (Homo sapiens, UniProt P25440)
Sequence (P25440 344-453 limits assumed): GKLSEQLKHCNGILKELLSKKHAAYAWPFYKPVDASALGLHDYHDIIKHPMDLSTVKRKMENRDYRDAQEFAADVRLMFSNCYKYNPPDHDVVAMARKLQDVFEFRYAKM
Assay: TR-FRET binding assay, isolated recombinant BD
observable: IC50 (nM)

# substance smiles, test result
rows = [
    ("COc1cc(OC)c2c(=O)cc(-c3cc(C)c(OC[C@@H](O)CN4CCCCC4)c(C)c3)oc2c1", 1200),
]

====

Molecular target: BRD4 BD1 (Homo sapiens, UniProt O60885)
Experiment: TR-FRET binding assay, isolated recombinant BD
Settings: Binding affinity BRD4 BD1 (IC50), n = 3
observable: IC50 (nM)

# substance smiles, assayed system, test result
records = [
    ("COc1cc(OC)c2c(=O)cc(-c3cc(C)c(OC[C@@H](O)CN4CCCCC4)c(C)c3)oc2c1", "BRD4 BD1 (Homo sapiens, UniProt O60885)", 86),
]

====

Target: BRDT BD1 (Homo sapiens, UniProt Q58F21)
Assay: TR-FRET binding assay, isolated recombinant BD
pIC50: −log10 of the molar value.
observable: pIC50

# substance smiles, observable, test result
data = [
    ("COc1cc(OC)c2c(=O)cc(-c3cc(C)c(OC[C@@H](O)CN4CCCCC4)c(C)c3)oc2c1", "pIC50", 5.60),
    ("COc1cc(OC)c2c(=O)cc(-c3cc(C)c(OC[C@H](O)CN4CCCCC4)c(C)c3)oc2c1", "pIC50", 5.54),
]

====

Target: BRD3 BD1 (Homo sapiens, UniProt Q15059)
Sequence (Q15059 34-140 limits assumed): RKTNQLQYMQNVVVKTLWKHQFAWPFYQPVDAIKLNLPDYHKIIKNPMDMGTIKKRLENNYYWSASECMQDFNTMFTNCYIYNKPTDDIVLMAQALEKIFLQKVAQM
Test: TR-FRET binding assay, isolated recombinant BD
pIC50: −log10 of the molar value.
Form field: pIC50 (one value per entry).
observable: pIC50

# substance smiles, assayed system, test result
records = [
    ("COc1cc(OC)c2c(=O)cc(-c3cc(C)c(OC[C@H](O)CN4CCCCC4)c(C)c3)oc2c1", "BRD3 BD1 (Homo sapiens, UniProt Q15059)", 5.62),
    ("COc1cc(OC)c2c(=O)cc(-c3cc(C)c(OC[C@@H](O)CN4CCN(C)CC4)c(C)c3)oc2c1", "BRD3 BD1 (Homo sapiens, UniProt Q15059)", 5.58),
    ("COc1cc(OC)c2c(=O)cc(-c3cc(C)c(OC[C@@H](O)CN4CCCCC4)c(C)c3)oc2c1", "BRD3 BD1 (Homo sapiens, UniProt Q15059)", 5.72),
]

====

System: CIG5
Test: TLR3
Format: cell-based, human
Details: Homo sapiens, read-out: CIG5 (%) inhibitory rate
Returns Met if the recorded inhibition at 10 µM is greater than or equal to -20%, and Not met otherwise.

# compound, cat
records = [
    ("COc1cc(OC)c2c(=O)cc(-c3cc(C)c(OC[C@H](O)CN(C)C)c(C)c3)oc2c1 [Compound 49]", "Met"),
    ("COc1cc(OC)c2c(=O)[nH]c(-c3ccc(C(F)(F)F)c(C)c3)nc2c1 [Compound 28]", "Not met"),
    ("Cc1cc(-c2nc3cc([N+](=O)[O-])ccc3c(=O)n2C)cc(C)c1O [Compound 19]", "Not met"),
    ("Cc1cc(-c2nc3ccccc3c(=O)[nH]2)cc(C)c1O [Compound 10]", "Not met"),
    ("COc1cc(OC)c2c(=O)[nH]c(-c3cc(C)c(O)c(C)c3)nc2c1 [Compound 7, RVX-OH, reference compound]", "Met"),
]
